Biological target: UniProtKB Q62035
Sequence (Q62035 whole entry): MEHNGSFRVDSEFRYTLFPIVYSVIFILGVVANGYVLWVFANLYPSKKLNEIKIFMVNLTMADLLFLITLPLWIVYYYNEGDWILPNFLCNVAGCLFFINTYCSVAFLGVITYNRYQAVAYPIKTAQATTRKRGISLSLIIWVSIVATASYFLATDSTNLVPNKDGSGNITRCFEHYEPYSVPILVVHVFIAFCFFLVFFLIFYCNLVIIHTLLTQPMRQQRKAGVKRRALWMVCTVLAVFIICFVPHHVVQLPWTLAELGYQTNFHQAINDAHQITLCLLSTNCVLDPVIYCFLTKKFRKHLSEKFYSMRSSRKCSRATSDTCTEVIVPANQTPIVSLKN
Experiment: Protection of PAF induced lethality in mouse after intraperitoneal dose of 1 mg/kg in saline 0.5 hr prior to an LD90 of PAF
Type: functional, organism-based
Parameters: dose 1 mg/kg

substance smiles | Survival, %
CCCCCCCCCCCCCCOc1ccc(C(=O)N(Cc2ccc[n+](C)c2)C(C)=O)cc1C(C)(C)C | 17
CCCCCCCCCCOc1ccc(C(=O)N(Cc2cccc[n+]2C)C(C)=O)cc1C(C)(C)C | 50
CCCCCCCCCCCCCCOc1ccc(C(=O)N(Cc2cccc[n+]2C)C(C)=O)cc1 | 27
CCCCCCCCCCCCCCOc1ccc(C(=O)N(Cc2cccc[n+]2C)C(C)=O)cc1OCCCCCCCCCCCCCC | 36
CCCCCCCCCCCCCCOc1cc(C(=O)N(Cc2cccc[n+]2C)C(C)=O)ccc1OC | 21
CCCCCCCCCCCCCCOc1cccc(OP(=O)([O-])Oc2cccc(C[n+]3csc(C)c3)c2)c1C(=O)OC | 85
CCCCCCCCCCCCCCOc1ccc(C(=O)N(Cc2cccc[n+]2C)C(C)=O)cc1OC | 58
CCCCCCCCCCCCCCOc1ccc(COC(=O)N(Cc2cccc[n+]2C)C(C)=O)cc1 | 40
CCCCCCCCCCCCCCOc1ccccc1CN(Cc1cccc[n+]1C)C(C)=O | 23
CCCCCCCCCCCCCCOc1ccc(CNC(=O)c2cccc[n+]2CC)cc1 | 36
CCCCCCCCCCCCCCOc1ccc(C(=O)NC(=O)c2cc[n+](CCC)cc2)cc1OC | 33
CCCCCCCCCCCCCCOc1ccc(CN(Cc2cccc[n+]2CC)C(C)=O)cc1 | 40
CCCCCCCCCCCCCCOc1ccc(CN(Cc2ccc[n+](C)c2)C(C)=O)cc1 | 38
